biological target: F508delCFTR (Homo sapiens, UniProt P13569, DEL508-508); construct: expressed in transfected cells; host or cells: CFBE41o- human lung derived epithelial cells (CFBE41o-F508delCFTR-HRP), doxycycline-inducible; assay: Cell Surface Expression-Horse Radish Peroxidase (CSE-HRP) Assay; assay type: cell-based; details: test compound with co-corrector; maximum at any tested concentration
Sequence (P13569 with tags, fused parts or gaps DEL508-508): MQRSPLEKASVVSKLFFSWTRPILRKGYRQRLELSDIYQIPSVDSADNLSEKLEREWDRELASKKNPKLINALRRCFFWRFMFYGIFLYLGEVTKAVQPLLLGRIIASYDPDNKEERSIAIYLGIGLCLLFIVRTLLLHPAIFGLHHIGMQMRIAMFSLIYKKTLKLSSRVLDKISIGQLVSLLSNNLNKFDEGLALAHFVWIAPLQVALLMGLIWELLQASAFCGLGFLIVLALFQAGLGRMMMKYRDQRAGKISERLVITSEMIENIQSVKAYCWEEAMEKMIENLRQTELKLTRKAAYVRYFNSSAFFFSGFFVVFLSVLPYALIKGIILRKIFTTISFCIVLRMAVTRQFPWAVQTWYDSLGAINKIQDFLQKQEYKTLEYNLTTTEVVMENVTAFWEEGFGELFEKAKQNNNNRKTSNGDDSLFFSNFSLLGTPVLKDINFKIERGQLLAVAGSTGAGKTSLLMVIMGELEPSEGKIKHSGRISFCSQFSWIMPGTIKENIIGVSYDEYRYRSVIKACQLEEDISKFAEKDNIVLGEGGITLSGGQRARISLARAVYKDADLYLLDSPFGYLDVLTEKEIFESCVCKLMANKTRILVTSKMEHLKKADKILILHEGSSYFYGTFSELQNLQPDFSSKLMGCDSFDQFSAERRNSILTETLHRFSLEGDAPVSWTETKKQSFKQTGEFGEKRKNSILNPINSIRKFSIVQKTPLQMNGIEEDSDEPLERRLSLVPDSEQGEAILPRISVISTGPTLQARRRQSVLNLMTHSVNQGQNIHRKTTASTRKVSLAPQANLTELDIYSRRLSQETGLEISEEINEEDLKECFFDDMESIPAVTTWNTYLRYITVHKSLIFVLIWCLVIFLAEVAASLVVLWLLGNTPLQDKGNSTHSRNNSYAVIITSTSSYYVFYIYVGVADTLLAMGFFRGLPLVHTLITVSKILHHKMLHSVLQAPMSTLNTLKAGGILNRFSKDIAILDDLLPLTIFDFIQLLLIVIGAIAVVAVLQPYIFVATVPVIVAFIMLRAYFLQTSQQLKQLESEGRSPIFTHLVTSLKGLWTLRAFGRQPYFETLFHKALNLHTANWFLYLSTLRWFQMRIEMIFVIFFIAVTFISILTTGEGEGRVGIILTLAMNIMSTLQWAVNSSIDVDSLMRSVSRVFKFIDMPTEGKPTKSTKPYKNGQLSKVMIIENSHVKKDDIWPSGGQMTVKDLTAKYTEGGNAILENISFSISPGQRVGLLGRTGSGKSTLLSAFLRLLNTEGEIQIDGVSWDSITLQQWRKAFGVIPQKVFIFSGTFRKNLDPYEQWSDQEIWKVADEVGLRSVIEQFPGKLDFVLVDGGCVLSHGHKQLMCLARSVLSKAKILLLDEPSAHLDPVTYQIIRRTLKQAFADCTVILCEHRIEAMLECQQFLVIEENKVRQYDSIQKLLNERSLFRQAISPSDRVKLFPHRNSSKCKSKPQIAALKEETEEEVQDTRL
measuredMetric: Maximum % activity (with co-corrector)

Previously resolved entries follow.
compound	Maximum % activity (with co-corrector)
CCc1cnc(N2CCOCC2)c(C2(C(=O)NS(=O)(=O)c3cccc4ncccc34)CC2)c1 [GIII-23]	++ (≥150 and <350)
COc1cnc(C2CC2)c(C2(C(=O)NS(=O)(=O)c3cccc4ncccc34)CC2)c1 [GII-15]	+++ (≥350)
CCc1ncc(OC(C)C)cc1C1(C(=O)NS(=O)(=O)c2cccc3ncccc23)CC1 [GII-16]	++ (≥150 and <350)
CC(C)Oc1ncccc1C1(C(=O)NS(=O)(=O)c2cccc3ccccc23)CC1 [GII-2]	++ (≥150 and <350)
Cc1cnc(OC(C)C)c(C2(C(=O)NS(=O)(=O)c3cccc4nc(C)ccc34)CC2)c1 [Example GI-58]	+++ (≥350)
CCc1cnc(OCCOC)c(C2(C(=O)NS(=O)(=O)c3cccc4[nH]ccc34)CC2)c1 [Example GI-109]	+++ (≥350)
CC(C)Oc1ncc(N(C)C)cc1C1(C(=O)NS(=O)(=O)c2cccc3[nH]ccc23)CC1 [Example GI-73]	+++ (≥350)
O=C(NS(=O)(=O)c1cccc2[nH]ccc12)C1(c2cc(C3CCC3)cnc2N2CCCC2)CC1 [Example GI-30]	+++ (≥350)

Name the recorded Maximum % activity (with co-corrector) of the item CC(C)Oc1ncc(N(C)C)cc1C1(C(=O)NS(=O)(=O)c2cccc3ncccc23)CC1 [Example GI-71] in your answer.
+++ (≥350)

Output Maximum % activity (with co-corrector) of COc1ccc(C2(C(=O)NS(=O)(=O)c3cccc4c3CCCN4)CC2)c(C)n1 [GIII-15]
++ (≥150 and <350)

Answer with the recorded Maximum % activity (with co-corrector) for the compound listed here: O=C(NS(=O)(=O)c1cccc2c1CCCN2)C1(c2cc(C3CCC3)cnc2N2CCCC2)CC1 [Example GI-31]
+++ (≥350)

====

molecular target: F508delCFTR (Homo sapiens, UniProt P13569, DEL508-508); construct: expressed in transfected cells; host or cells: CFBE41o- human lung derived epithelial cells (CFBE41o-F508delCFTR-HRP), doxycycline-inducible; experiment: Cell Surface Expression-Horse Radish Peroxidase (CSE-HRP) Assay; format: cell-based; details: without co-corrector; maximum at any tested concentration; read-out: Maximum % activity (without co-corrector);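 as to Maximum % activity (without co-corrector): % of on-plate positive control chromenyl benzoic acid corrector at 2 or 3 µM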
I'd appreciate it if you could supply Emax values for the items below.

Give reported Emax value for CCOCC(C)(C)c1ccc(OC)c(C2(C(=O)NS(=O)(=O)c3cccc4nc(C)ccc34)CC2)c1 [II-111]
> 150%

Answer with reported Emax of COc1ncc(C2CCC2)cc1C1(C(=O)NS(=O)(=O)c2cccn3nccc23)CC1 [Example I-19]
> 150%

Supply recorded Emax for COc1ccc(Br)cc1C1(C(=O)NS(=O)(=O)c2cccc3c2CCCN3)CCC1 [Example I-9] here.
> 150%

Specify reported Emax for the compound shown: Cc1ccc(O[C@H]2CCOC2)c(C2(C(=O)NS(=O)(=O)c3cccc4nc(C)ccc34)CC2)c1 [Example I-124]
> 150%

Entry COc1nc2ccccc2cc1C1(C(=O)NS(=O)(=O)c2cccc3nc(C)ccc23)CC1 [Example I-75] needs its Emax filled in; supply it.
> 150%

Give the reported Emax for this compound. CCOc1ccc(C(C)(C)OC)cc1C1(C(=O)NS(=O)(=O)c2cccc3ncccc23)CC1 [II-97]
> 150%

Assign Emax to the following record: CCn1nc(C)cc1C1(C(=O)NS(=O)(=O)c2cccc3ccccc23)CC1 [II-4]
50 to 150%

Note Emax for the compound shown: Cc1ccccc1S(=O)(=O)NC(=O)C1(c2ccc3c(c2)OCO3)CC1 [Example III-86]
< 50%

Name the recorded Emax of the item COCC1(c2ccc(OC)c(C3(C(=O)NS(=O)(=O)c4cccc5ncccc45)CC3)c2)CC1 [Example I-73] in your answer.
> 150%

Provide only the value of recorded Emax for COc1ccc(C(C)C)cc1C1(C(=O)NS(=O)(=O)c2cccc3nc(C)ccc23)CC1 [Example I-71]
> 150%

State its Emax for this compound: O=C(NS(=O)(=O)c1ccccc1Cl)C1(c2cccc(Cl)c2)CC1 [Example III-23]
50 to 150%

Name the recorded Emax of the compound listed here: COc1ccc(C2(C(=O)NS(=O)(=O)c3cccc4ccccc34)CCC2)cc1OC [Example III-121]
< 50%

Given the compound O=C(NS(=O)(=O)Cc1ccccc1)C1(c2ccc(Cl)c(Cl)c2)CC1 [Example III-115] , write its reported Emax.
< 50%

Please report the measured Emax for COc1cccc(C2(C(=O)NS(=O)(=O)c3cccc4ncccc34)CC2)c1 [II-56]
> 150%

Find the measured Emax of CCCc1nc(C(F)(F)F)ccc1C1(C(=O)NS(=O)(=O)c2cccc3c2CCCN3)CC1 [Example GI-8] and report it.
> 150%

Note Emax for the compound shown: COCc1ccc(OC)c(C2(C(=O)NS(=O)(=O)c3cccc4ncccc34)CC2)c1 [II-49]
> 150%

====

biological target: F508delCFTR (Homo sapiens, UniProt P13569, DEL508-508); construct: expressed in transfected cells; host or cells: CFBE41o- human lung derived epithelial cells (CFBE41o-F508delCFTR-HRP), doxycycline-inducible; assay: Cell Surface Expression-Horse Radish Peroxidase (CSE-HRP) Assay; type: cell-based; details: with co-corrector; maximum at any tested concentration
measuredMetric: Maximum % activity (with co-corrector)

COc1ccc(C#N)cc1C1(C(=O)NS(=O)(=O)c2cccc3c2CCCN3)CC1 +++ (≥350)
COc1ccccc1C1(C(=O)NS(=O)(=O)c2cccc3ncccc23)CCC1 +++ (≥350)
CCOc1ccc(C(C)(C)OC)cc1C1(C(=O)NS(=O)(=O)c2cccc3ncccc23)CC1 +++ (≥350)

====

Give measured Emax for each item. Keep answers brief.
Biological target: F508delCFTR (Homo sapiens, UniProt P13569, DEL508-508)
Construct: expressed in transfected cells; host or cells: CFBE41o- human lung derived epithelial cells (CFBE41o-F508delCFTR-HRP), doxycycline-inducible
Assay: Cell Surface Expression-Horse Radish Peroxidase (CSE-HRP) Assay
Assay type: cell-based
Details: without co-corrector; maximum at any tested concentration; read-out: Maximum % activity (without co-corrector)
Description: A cellular assay for measuring the F508delCFTR cell surface expression after correction with test compounds either without or with a co-corrector (2 μM of 3-[(2R,4R)-4-({[1-(2,2-difluoro-1,3-benzodioxol-5-yl)cyclopropyl]carbonyl}amino)-7-methoxy-3,4-dihydro-2H-chromen-2-yl]benzoic acid), was developed in human lung derived epithelial cell line (CFBE4lo−) (Veit G et al, (2012) Mol Biol Cell. 23(21): 4188-4202). […] The raw counts from the experiment were analyzed using Accelrys® Assay Explorer v3.3. […]

Return the recorded Emax value; entry: COc1ccc(C2CCC2)cc1C1(C(=O)NS(=O)(=O)c2cccc3ccc(C)nc23)CC1 [Example I-62]
> 150%

Supply measured Emax of COC[C@@H](C)Oc1ccc(C)cc1C1(C(=O)NS(=O)(=O)c2cccc3ncccc23)CC1 [Example I-95] in your reply.
> 150%

Look up and report measured Emax for this entry: Cc1cnc(OC(C)C)c(C2(C(=O)NS(=O)(=O)c3cccc4[nH]ncc34)CC2)c1 [Example III-131]
> 150%

Recall and state the measured Emax for COc1ccc(Br)cc1C1(C(=O)NS(=O)(=O)c2cccc3ccccc23)CC1 [Example I-1] .
> 150%

Give reported Emax value for COc1ncc(C2CCC2)c(C)c1C1(C(=O)NS(=O)(=O)c2cccc3c2ccn3C)CC1 [II-41]
50 to 150%

Identify measured Emax associated with COc1ccc(S(=O)(=O)NC(=O)C2(c3ccc(Cl)cc3Cl)CC2)cc1OC [Example III-25]
< 50%

In one line, give reported Emax of the entry O=C(NS(=O)(=O)c1ccc2ccccc2c1)C1(c2ccc(Cl)cc2Cl)CC1 [Example III-27] .
< 50%

Quick one: give measured Emax for CCOc1ccc(C(C)(C)OCC)cc1C1(C(=O)NS(=O)(=O)c2cccc3ncccc23)CC1 [Example I-99]
> 150%

Identify Emax associated with the molecule COc1cc(C2CCC2)cc(OC)c1C1(C(=O)NS(=O)(=O)c2cccc3nc(C)ccc23)CC1 [II-69]
> 150%

====

molecular target: F508delCFTR (Homo sapiens, UniProt P13569, DEL508-508); construct: expressed in transfected cells; host or cells: CFBE41o- human lung derived epithelial cells (CFBE41o-F508delCFTR-HRP), doxycycline-inducible; assay: Cell Surface Expression-Horse Radish Peroxidase (CSE-HRP) Assay; type: cell-based; settings: test compound alone, without co-corrector; read-out: EC50 (without co-corrector)
measuredMetric: EC50

Give the observed EC50 of COc1ncc(C)cc1C1(C(=O)NS(=O)(=O)c2cccc3ccccc23)CC1 [Example I-15] for F508delCFTR (Homo sapiens, UniProt P13569, DEL508-508).
3 to 10 µM

Look up and report EC50, with F508delCFTR (Homo sapiens, UniProt P13569, DEL508-508) as system, for COc1ccc(C)c(OC)c1C1(C(=O)NS(=O)(=O)c2cccc3ccccc23)CC1 [Example I-40]
< 3 µM

State the measured EC50 (F508delCFTR (Homo sapiens, UniProt P13569, DEL508-508)) of COc1ccc(Cl)c(OC)c1C1(C(=O)NS(=O)(=O)c2cccc3ncccc23)CC1 [II-54]
< 3 µM

Check F508delCFTR (Homo sapiens, UniProt P13569, DEL508-508) data and give EC50 for COc1ncc(C(F)(F)F)cc1C1(C(=O)NS(=O)(=O)c2cccc3nc(C)ccc23)CC1 [II-9] .
3 to 10 µM

State, for F508delCFTR (Homo sapiens, UniProt P13569, DEL508-508), measured EC50 of the compound listed here: O=C(NS(=O)(=O)c1cccc2ccccc12)C1(c2ccc(C(F)(F)F)nc2C2CCC2)CC1 [Example GI-11]
< 3 µM

Lab note: F508delCFTR (Homo sapiens, UniProt P13569, DEL508-508) assay, enter EC50 for Cc1ccc(S(=O)(=O)NC(=O)C2(c3ccc(Cl)cc3Cl)CC2)cc1 [Example III-37] here
> 10 µM

Specify EC50 for COc1cc(C2(C(=O)NS(=O)(=O)c3cccc4ccccc34)CC2)ccc1C [II-2] , system F508delCFTR (Homo sapiens, UniProt P13569, DEL508-508).
3 to 10 µM

Answer with EC50 of COc1ccc(C2CCC2)cc1C1(C(=O)NS(=O)(=O)c2cccc3[nH]ccc23)CC1 [Example I-55] measured for F508delCFTR (Homo sapiens, UniProt P13569, DEL508-508).
< 3 µM

State recorded EC50 with F508delCFTR (Homo sapiens, UniProt P13569, DEL508-508), entry Cc1cccc(C2(C(=O)NS(=O)(=O)c3ccccc3C)CCOCC2)c1 [Example III-82] , no comment.
> 10 µM

Retrieve EC50 on F508delCFTR (Homo sapiens, UniProt P13569, DEL508-508); query COc1ccc(C)c(C)c1C1(C(=O)NS(=O)(=O)c2cccc3c2CCCN3)CC1 [II-36]
< 3 µM

Enter EC50 (test system F508delCFTR (Homo sapiens, UniProt P13569, DEL508-508)) for O=C(NS(=O)(=O)c1ccc(-n2cccn2)cc1)C1(c2cccc(Cl)c2)CC1 [Example III-73]
> 10 µM

# assay system F508delCFTR (Homo sapiens, UniProt P13569, DEL508-508): give EC50 of Cc1ccc(C)c(C2(C(=O)NS(=O)(=O)c3cccc4[nH]ccc34)CC2)c1 [II-80]
3 to 10 µM

Specify EC50 for COc1ccc(C2COC2)cc1C1(C(=O)NS(=O)(=O)c2cccc3ncccc23)CC1 [Example I-90] , system F508delCFTR (Homo sapiens, UniProt P13569, DEL508-508).
3 to 10 µM

Tell me EC50 of COc1ncc(C(F)(F)F)cc1C1(C(=O)NS(=O)(=O)c2cccc3ncccc23)CC1 [II-7] when tested on F508delCFTR (Homo sapiens, UniProt P13569, DEL508-508).
3 to 10 µM

// output EC50; input Cc1cnc(OC(C)C)c(C2(C(=O)NS(=O)(=O)c3cccc4[nH]ncc34)CC2)c1 [Example III-131] ; system F508delCFTR (Homo sapiens, UniProt P13569, DEL508-508)
3 to 10 µM

Provide the reported EC50 (system: F508delCFTR (Homo sapiens, UniProt P13569, DEL508-508)) for COC(=O)c1csc(S(=O)(=O)NC(=O)C2(c3ccc(Cl)cc3Cl)CC2)c1OC [Example III-11]
> 10 µM

Please indicate recorded EC50 of Cc1ccc(OC2COC2)c(C2(C(=O)NS(=O)(=O)c3cccc4ncccc34)CC2)c1 [Example I-93] measured with F508delCFTR (Homo sapiens, UniProt P13569, DEL508-508).
3 to 10 µM

Name the value of EC50 reported for COc1ccc(C2CC2)cc1C1(C(=O)NS(=O)(=O)c2cccc3ncccc23)CC1 [Example I-13] when tested on F508delCFTR (Homo sapiens, UniProt P13569, DEL508-508).
< 3 µM
